Test system: OVCAR-5 ovarian
TEST_METHOD_NOTES: NCI tumour cell line growth inhibition, 48 h; in the data active = GI50 below about 0.43 µM; inactive = the rest
Labels: Y (active), N (inactive)

* COc1cc2c3c(n(C)c(=O)c2cc1OC)-c1cc2c(cc1/C3=C\CCCN)OCO2 | N
* Cc1cc(/C=C/c2ccc3cc(N(C)C)ccc3[n+]2C)c(C)n1-c1ccccc1 | N
* O=C(/C=C/c1ccc(Cl)cc1)c1ccc(Nc2ccnc3cc(Cl)ccc23)cc1 | N
* CO[C@H]1/C=C(/C)CCC[C@H](C)[C@H](O)[C@@H](C)C(=O)C(C)(C)[C@@H](O)CC(=O)O[C@@H]1/C(C)=C/c1csc(C)n1 | Y

----------
System: M14 melanoma
TEST_METHOD_NOTES: NCI tumour cell line growth inhibition, 48 h
MEASUREMENT_TYPE: TGI (µM)

* Cn1c2ccccc2c2cc(-c3ccccc3)c3c(c21)C(=O)c1ccccc1C3=O | 33.4
* O=C1c2cc3c(cc2-c2c1c1ccc(F)cc1c(=O)n2CCCNCCO)OCO3 | 1.09

----------
System: IGROV1 ovarian
TEST_METHOD_NOTES: NCI tumour cell line growth inhibition, 48 h; in the data active = GI50 below about 0.43 µM; inactive = the rest
Labels: active, inactive

* COc1cc2c3c(n(C)c(=O)c2cc1OC)-c1cc2c(cc1/C3=C\CCCN)OCO2 | inactive
* CO[C@H]1/C=C(/C)CCC[C@H](C)[C@H](O)[C@@H](C)C(=O)C(C)(C)[C@@H](O)CC(=O)O[C@@H]1/C(C)=C/c1csc(C)n1 | active
* O=C(CSc1ccc(Cl)cc1)Nc1ccc(-c2nc3ccccc3s2)c(Cl)c1 | inactive
* Cc1cccc(NC(=O)Cn2cnc3sc(C(=O)OC(C)C)c(C)c3c2=O)c1 | inactive
* CCN1CCN(c2nc(C)cc(N(CCNc3ccnc4cc(Cl)ccc34)Cc3ccc4c(c3)OCO4)n2)CC1 | inactive
* C[C@@H]1CCC2[C@@H](C)[C@@H](OCC(CO[C@H]3OC4O[C@@]5(C)CC[C@H]6[C@H](C)CCC([C@H]3C)[C@@]46OO5)OC(=O)CCC(=O)O)OC3O[C@@]4(C)CC[C@@H]1[C@]32OO4 (stereo not given in full) | inactive
* ClCc1cccc(Cn2cnc3ncnc(Cl)c32)c1 | inactive
* CC(C)[C@H]1COC(=O)N1[C@@H]1C(=O)N([C@@H](CCC(=O)N2CCN(C3CCCC3)CC2)C(=O)N[C@@H]2CCCc3ccccc32)[C@@H]1/C=C/c1cccc(Br)c1 | inactive
* Cc1c2c(nn1-c1ccc(S(=O)(=O)/N=C3\SCCC(=O)N3c3ccccc3)cc1)-c1ccccc1CC2 | inactive
* [Cl-].[La+3].[O-]/N=C(\c1ccccc1)c1ccccn1.[O-]/N=C(\c1ccccc1)c1ccccn1.[O-]/N=C(\c1ccccc1)c1ccccn1 | inactive

----------
Test system: PC-3 prostate
TEST_METHOD_NOTES: NCI tumour cell line growth inhibition, 48 h
Parameter TGI: see the listing below.
MEASUREMENT_TYPE: TGI

* CC1(C)CCCC2OC2CCC(C)(C)C1=O (centres undefined) | > 100 µM
* CC(C)[C@H]1COC(=O)N1[C@@H]1C(=O)N([C@@H](CCC(=O)N2CCN(C3CCCC3)CC2)C(=O)N[C@@H]2CCCc3ccccc32)[C@@H]1/C=C/c1cccc(Br)c1 | 4.28 µM
* CCN(CC)/C(SCc1ccccc1)=C(\C(Cl)=C(Cl)Cl)[N+](=O)[O-] | 47.1 µM
* Cc1cc(I)cc(CN(C)CCCN2CCCCC2)c1O | 32.9 µM
* CC1=C[C@@H]2Cc3nc4cc(Cl)ccc4c(N)c3[C@H](C1)C2 | 26.9 µM
* CCN1CCN(c2nc(C)cc(N(CCNc3ccnc4cc(Cl)ccc34)Cc3ccc4c(c3)OCO4)n2)CC1 | 13.4 µM
* CO[C@H]1/C=C(/C)CCC[C@H](C)[C@H](O)[C@@H](C)C(=O)C(C)(C)[C@@H](O)CC(=O)O[C@@H]1/C(C)=C/c1csc(C)n1 | > 100 µM
* COc1cc2c3c(n(C)c(=O)c2cc1OC)-c1cc2c(cc1/C3=C\CCN)OCO2 | 2.94 µM
* CN(C)C1(N(C)C)Oc2c(c(=O)n(C)c(=O)n2C)C(c2ccc(Br)cc2)C1(F)F (centres undefined) | > 100 µM
* N#CC12C(=O)N=C(N)C1(C#N)C(c1ccco1)NC1=C2CCCC1 (centres undefined) | > 100 µM
* Cc1cc(N(CCOS(C)(=O)=O)CCOS(C)(=O)=O)ccc1C=O | > 100 µM
* CCOC(=O)C1=C(C)C2C=C(c3cccs3)CC(c3ccc(Cl)cc3)=C2OC1=O (centres undefined) | > 100 µM
* NS(=O)(=O)c1cc(Cl)c(NC(=S)NC(=O)Nc2ccc(Cl)c(Cl)c2)c(Cl)c1 | > 100 µM
* Cc1cc(O)c(/C=N/C(=S)NCc2ccccc2)c(=O)o1 | > 100 µM
* O=C(/C=C/c1ccc2c(c1)OCO2)CC(=O)C(=O)c1c[nH]c2ccccc12 | > 100 µM
* O=C(O)CCC(=O)OC1N=C(c2ccccc2Cl)c2cc([N+](=O)[O-])ccc2NC1=O (centres undefined) | > 100 µM
* CC1CCC(C(=O)O)(C(Br)C(=O)O)CC1 (centres undefined) | > 100 µM
* ClCc1cccc(Cn2cnc3ncnc(Cl)c32)c1 | 5.32 µM
* CN(C(=O)c1ccc(C(F)(F)F)cc1)c1ccc(Oc2ccc3c(c2)cc(C(=O)N2CCN(Cc4ccc(OC(F)F)cc4)CC2)n3C)nc1 | > 100 µM

----------
Tested on: MOLT-4 leukemia
TEST_METHOD_NOTES: NCI tumour cell line growth inhibition, 48 h
MEASUREMENT_TYPE: TGI

* Cc1cccc2c1CC1(C2)Cc2c(C)cccc2C1=O (configuration not stated) | 30.2 µM
* CCOC(=O)NC(=O)c1cn(CCCO)c(=O)[nH]c1=O | > 100 µM
* COc1cccc(CCCNC(=O)Cc2cc(OC)c(OC)cc2CO)c1 | > 100 µM
* Cc1cc(N(CCOS(C)(=O)=O)CCOS(C)(=O)=O)ccc1C=O | 14.8 µM
* COc1cccc(-c2nc(-c3ccc(NC(=O)C(C)C)cc3)[nH]c2-c2ccnc(Br)c2)c1 | > 100 µM
* O=C(Nc1ccc(Cl)cc1)c1cccc(NC2=C(Cl)C(=O)N(Cc3ccccc3)C2=O)c1 | 24.5 µM
* c1c[nH]c(-c2ccc(-c3ccc[nH]3)c3nsnc23)c1 | > 45.8 µM
* C=C1NC(=O)C(C(C)CC)NC(=O)C2CSCC(NC(=O)CCC(=O)O)C(=O)NC(Cc3ccccc3)C(=O)NC(C)C(=O)NC(CC(C)CC)C(=O)NC(C(=O)NC(Cc3ccccc3)C(=O)N3CCCC3C(=O)N2)C(C)OC(=O)C(CO)NC(=O)C(C(O)COC)N(C)C(=O)C(C(C)C)NC(=O)C(CC(C)CC)NC1=O (configuration not stated) | > 6 µM
* O=C(/C=C/c1ccc(Cl)cc1)c1ccc(Nc2ccnc3cc(Cl)ccc23)cc1 | > 100 µM
* COC(=O)C1CCC(=O)N1C(c1ccc(OC)cc1)c1ccc2c(c1)OCO2 (configuration not stated) | > 100 µM
* CC1(C)CCCC2OC2CCC(C)(C)C1=O (configuration not stated) | > 100 µM
* O=S(=O)(CCn1c(Sc2ccccc2)c(Sc2ccccc2)c2ccccc21)c1ccccc1 | > 100 µM

----------
Parameter TGI: see the listing below.
Test system: HT29 colon
TEST_METHOD_NOTES: NCI tumour cell line growth inhibition, 48 h
MEASUREMENT_TYPE: TGI

• CC(=O)OC1=CC(n2cc(F)c(=O)[nH]c2=O)OC(C)C1=O (stereo not drawn) = > 100 µM
• [Cl-].[La+3].[O-]/N=C(\c1ccccc1)c1ccccn1.[O-]/N=C(\c1ccccc1)c1ccccn1.[O-]/N=C(\c1ccccc1)c1ccccn1 = > 100 µM
• Cc1cn(C2CC(O)C(CO)O2)c(=O)[nH]c1=O (stereo not drawn) = > 5000 µM
• O=C(/C=C/c1ccc(Cl)cc1)c1ccc(Nc2ccnc3cc(Cl)ccc23)cc1 = > 100 µM
• Oc1ccc([I+]c2ccccc2)cc1O = > 100 µM
• O=C1c2cc3c(cc2-c2c1c1ccc(F)cc1c(=O)n2CCCNCCO)OCO3 = 0.152 µM
• CC1=NN(c2cccc(Cl)c2)C2(C1=C/C=C/c1ccccc1)C(Cl)C(=O)N2c1nc2ccccc2s1 (stereo not drawn) = > 100 µM
• COc1ccc(C2=N/C(=C\c3ccccc3)C(=O)O2)cc1 = > 100 µM
• COC1=CC(=O)C(C2CC(=O)c3c(O)cc(O)cc3O2)=CC1=O (stereo not drawn) = > 61.3 µM
• N#CC12C(=O)N=C(N)C1(C#N)C(c1ccco1)NC1=C2CCCC1 (stereo not drawn) = > 100 µM
• CCOC(=O)c1nc2c(nc1C(=O)OCC)C(=O)c1ccccc1C2=O = 9.06 µM
• CC(=O)/C(=C\c1cccc([N+](=O)[O-])c1)C(=O)Nc1ccccc1C = > 100 µM
• CCN(CC)c1ccc(-c2cc(-c3cc(OC)c(OC)c(OC)c3)nc(N3CCOCC3)c2C#N)cc1 = 8.87 µM
• Fc1cc2[nH]ncc2c2c3c(c(-c4cn[nH]c4)nc12)CCCC3 = > 100 µM
• CCOC(=O)c1ccc(NCC#CCN2CCOCC2)cc1 = > 100 µM
• Cc1nc(N)c(N2CCN([N+](=O)[O-])CC2)c(=O)[nH]1 = > 100 µM
• NS(=O)(=O)c1cc(Cl)c(NC(=S)NC(=O)Nc2ccc(Cl)c(Cl)c2)c(Cl)c1 = > 100 µM
• Cc1ccc(S(=O)(=O)N/N=C/C2(c3ccccc3)c3ccccc3-c3ccccc32)cc1 = 26.3 µM
• Cc1ccc(C(=C2Sc3ccccc3S2)C(=C2Sc3ccccc3S2)c2ccc(C)s2)s1 = > 100 µM
• CCCCC(C(=O)NCCNC(=O)CCC(=O)N(C)O)C(=O)NCCNC(=O)CCC(=O)N(C)O = > 100 µM
• CCOC(=O)C1=C(C)C2C=C(c3cccs3)CC(c3ccc(Cl)cc3)=C2OC1=O (stereo not drawn) = > 100 µM
• O=S1(=O)OCCOS(=O)(=O)C1Br = > 100 µM
• CCN(CC)CCN(C(=Nc1ccccc1)N1CCOCC1)c1ccccc1 = > 100 µM
• CS(=O)c1ncc2c(n1)-c1ccccc1OC2 (stereo not drawn) = > 100 µM
• C=C1NC(=O)C(C(C)CC)NC(=O)C2CSCC(NC(=O)CCC(=O)O)C(=O)NC(Cc3ccccc3)C(=O)NC(C)C(=O)NC(CC(C)CC)C(=O)NC(C(=O)NC(Cc3ccccc3)C(=O)N3CCCC3C(=O)N2)C(C)OC(=O)C(CO)NC(=O)C(C(O)COC)N(C)C(=O)C(C(C)C)NC(=O)C(CC(C)CC)NC1=O (stereo not drawn) = > 6 µM
• N=C(N)SCc1ccc2c(c1)Sc1ccccc1O2 = 8.54 µM
• COc1cc(OC)cc(-c2cc(=O)c3c(OC)c(OC)c(OC)c(OC)c3o2)c1 = > 100 µM
• O=C1NCCN1/N=C/c1c(Cl)n(-c2ccccc2)c2ccccc12 = 35.3 µM
